# system.name: B-Raf(V599E) kinase (Homo sapiens, UniProt P15056, V600E)
# Sequence (P15056 with tags, fused parts or gaps V600E): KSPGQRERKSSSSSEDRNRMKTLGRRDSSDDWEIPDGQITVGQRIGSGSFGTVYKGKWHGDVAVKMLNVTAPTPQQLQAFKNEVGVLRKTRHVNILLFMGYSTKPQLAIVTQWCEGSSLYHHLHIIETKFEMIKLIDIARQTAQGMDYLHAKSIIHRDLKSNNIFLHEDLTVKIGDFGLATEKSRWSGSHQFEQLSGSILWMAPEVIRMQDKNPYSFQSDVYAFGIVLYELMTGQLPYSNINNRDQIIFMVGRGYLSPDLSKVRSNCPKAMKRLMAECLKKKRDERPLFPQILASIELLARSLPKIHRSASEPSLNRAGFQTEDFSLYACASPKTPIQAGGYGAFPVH
# test.details: B-Raf(V599E) kinase assay B1 (construct 1, MEK1 substrate, coupled spectrophotometric)
# Type: biochemical
Kindly state pIC50 for each of the entries shown.
Reminder that pIC50 is minus the log10 of a molar concentration.

Prompt: Recorded pIC50 for CNC(=O)c1cc(Oc2ccc(NC(=O)Nc3cc(C(C)(C)C)nn3-c3ccc4c(c3)CCNC4)cc2)ccn1 [Example 148] with B-Raf(V599E) kinase (Homo sapiens, UniProt P15056, V600E), please?
Completion: 7.51

Prompt: Check CC(C)(C)c1cc(NC(=O)Nc2cc(F)cc(F)c2)n(-c2ccc3c(c2)CCC(=O)N3)n1 [Example 326] too.
Completion: 7.77

Prompt: Check CC(C)(C)c1cc(NC(=O)Nc2cccc(Cl)c2)n(-c2cccc(CCN)c2)n1 [Example 257] too.
Completion: 7.21

Prompt: Check CC(C)(C)c1cc(NC(=O)Nc2cccc(Cl)c2Cl)n(-c2ccc3nc(N4CCNCC4)ccc3c2)n1 [Example 168] too.
Completion: 7.52

Prompt: Check CC(=O)N1CCc2ccc(-n3nc(C(C)(C)C)cc3NC(=O)Nc3cccc(Cl)c3Cl)cc2C1 [Example 126] too.
Completion: 8.19
